These measurements were taken from patent US20250154145A1.

# System: neutrophils
# assay-name: Neutrophil calcium flux assay (5-OXO-ETE-stimulated, Indo-1 fluorescence)
# Format: cell-based
# experimental-parameters: Neutrophil, 5-OXO-ETE-stimulated calcium flux
pIC50: −log10 of the molar value.
Listed next: entries and their corresponding pIC50.

>  <compound>
C[C@H](CC(=O)O)CC(=O)c1c(CCCCCCC#CC2CC(F)(F)C2)[nH]c2ccc(Cl)cc12

>  <test-value>
> 7.00

$$$$
>  <compound>
C[C@H](CC(=O)O)CC(=O)c1c(CCCCOCc2cccc(F)c2)n(C)c2ncc(Cl)cc12

>  <test-value>
6.52 to 7.00

$$$$
>  <compound>
CC(CCC(=O)c1c(CCCCCCc2cccc(Cl)c2)n(C)c2ccc(Cl)cc12)C(=O)O (stereo not drawn)

>  <test-value>
< 6.52

$$$$
>  <compound>
CONC(=O)C[C@H](C)CC(=O)c1c(CCCCCCc2cccc(Cl)c2)n(C)c2ccc(Cl)cc12

>  <test-value>
6.52 to 7.00

$$$$

Fill in the blank: the reported pIC50 of C[C@H](CC(=O)O)CC(=O)c1c(CCCCOCc2cccc(Cl)c2)[nH]c2ccc(C#N)cc12 is ____.
> 7.00

Fill in the blank: the reported pIC50 of C[C@H](CC(=O)O)CC(=O)c1c(CCCCCNc2cccnc2)n(C)c2ccc(Cl)cc12 is ____.
< 6.52

Fill in the blank: the reported pIC50 of C[C@@H](CC(=O)O)CC(=O)c1c(CCCCOCc2cccc(F)c2)n(C)c2ncc(C#N)cc12 is ____.
< 6.52

Fill in the blank: the reported pIC50 of Cn1c(CCCCCCc2cccc(Cl)c2)c(C(=O)N2CCC[C@@H]2CC(=O)O)c2cc(Cl)ccc21 is ____.
< 6.52

Fill in the blank: the reported pIC50 of C[C@@H](CC(=O)O)CC(=O)c1c(CCCCCCc2ccccc2)n(C)c2ccc(Cl)cc12 is ____.
< 6.52

Fill in the blank: the reported pIC50 of C[C@H](CC(=O)O)CC(=O)c1c(CCCCOCc2cccc(Cl)c2)n(C)c2cnc(Cl)cc12 is ____.
> 7.00

Fill in the blank: the reported pIC50 of CC(C)C#CCCCCCCc1c(C(=O)C[C@H](C)CC(=O)O)c2cc(Cl)ccc2n1C is ____.
> 7.00

Fill in the blank: the reported pIC50 of C[C@H](CC(=O)O)CC(=O)c1c(CCCCC[C@H](O)c2cccc(Cl)c2)n(C)c2ncc(Cl)cc12 is ____.
> 7.00

Fill in the blank: the reported pIC50 of C[C@H](CC(=O)O)CC(=O)c1c([C@H](O)CCCCCc2cccc(Cl)c2)n(C)c2ccc(Cl)cc12 is ____.
< 6.52

Fill in the blank: the reported pIC50 of C[C@@H](CC(=O)O)CC(=O)c1c(CCCCOCc2ccc(F)cc2)n(C)c2ncc(C#N)cc12 is ____.
< 6.52

Fill in the blank: the reported pIC50 of C[C@H](CC(=O)O)CC(=O)c1c(CCCCO[C@H](C)c2ccccc2)n(C)c2ncc(C#N)cc12 is ____.
> 7.00
